# assay: NCI Yeast Anticancer Drug Screen. Data for the bub3 strain (AID 167)
# assay_conditions: S. cerevisiae bub3 mutant strain, at 50.0 µM, stronger effect = higher value
The panel holds about 79,000 compounds, 15% with a hit somewhere; the sample as a whole holds those more often.
Decision: growth inhibition >= 10% yields satisfied, all other cases yield not satisfied.

molecule	assigned_category
Cc1nc(N)c(N=O)c(=O)[nH]1	satisfied

Inquiry: Determine whether measured growth inhibition meets or exceeds 10% for COc1ccc(C(Cc2ccccc2Cl)N(CCO)CCO)cc1 (stereo not given)
Reply text: not satisfied

Inquiry: Determine whether measured growth inhibition meets or exceeds 10% for CNC(=S)SCc1ccc(Cl)cc1
Reply text: satisfied

Inquiry: Determine whether measured growth inhibition meets or exceeds 10% for O=C(O)c1cnc2cccc([N+](=O)[O-])c2c1
Reply text: not satisfied

---

# assay: NCI Yeast Anticancer Drug Screen. Data for the mec2-1 strain (AID 157)
# assay_conditions: S. cerevisiae mec2-1 strain, at 50.0 µM, stronger effect = higher value
The panel holds about 79,000 compounds, 15% with a hit somewhere; the sample as a whole holds those more often.
The following molecules are shown together with reported growth inhibition values.
Answer format: numeric, % implied, no suffix.

molecule	unit_spec	growth inhibition
CCn1c(=O)c2c3ccc(O)cc3[nH]c2c2ccc(O)cc21	%	-74.6

Inquiry: Please give the measured growth inhibition for this molecule: COC(=O)c1nc(N)nc(C(=O)OC)c1C(=O)c1ccc(Cl)cc1Cl
Reply text: -0.6

Inquiry: Please give the measured growth inhibition for this molecule: CC(O)c1cccc(C(C)(C)O)c1Sc1c(C(C)(C)O)cccc1C(C)(C)O (stereo not drawn)
Reply text: 7.8

Inquiry: Please give the measured growth inhibition for this molecule: O=C1c2ccc(O)cc2OC(c2ccc(O)c(O)c2)C1O (stereo not drawn)
Reply text: -7.25

Inquiry: Please give the measured growth inhibition for this molecule: CCOC(=O)C1=C(NC(C)(C)C)OCC1=O
Reply text: -17.9

Inquiry: Please give the measured growth inhibition for this molecule: CC(C)(C)OC(=O)Cc1ccc([N+](=O)[O-])cc1
Reply text: -19.6

Inquiry: Please give the measured growth inhibition for this molecule: CCOC(=O)C(Cc1c[nH]c2ccccc12)NC(=O)C1(O)C(O)C2(CC)C=CCN3CCC4(c5cc(C6(C(=O)OC)CC7CC(CC)CN(CCc8c6[nH]c6ccccc86)C7)c(OC)cc5N(C)C14)C32 (stereo not drawn)
Reply text: 20.2

Inquiry: Please give the measured growth inhibition for this molecule: COc1ccc(C(=O)NC(=S)Nc2cc(C(F)(F)F)ccc2Cl)cc1
Reply text: 0.1

Inquiry: Please give the measured growth inhibition for this molecule: CCCCC(CC)CO (stereo not drawn)
Reply text: -25

Inquiry: Please give the measured growth inhibition for this molecule: Cc1cccnc1Nc1ncccc1C
Reply text: -18.8

---

# assay: NCI Yeast Anticancer Drug Screen. Data for the mlh1 rad18 strain (AID 175)
# assay_conditions: S. cerevisiae mlh1 rad18 strain growth inhibition; at 50.0 µM; stronger effect = higher value
This is part of a sample that, as a whole, favours compounds with a hit. Of some 79,000 tested, about 15% had one in any assay.
The following compounds are shown together with reported growth inhibition values.
Answer format: numeric, % implied, no suffix.

The following compounds have reported results that may help.
compound	endpoint	value
O=C(O)c1ccc(F)cc1F	growth inhibition	2.85
Nc1ncnc2c1ncn2C1CCC(CP(=O)(O)O)C1 (centres undefined)	growth inhibition	-0.1

Inquiry: Please give the measured growth inhibition for this compound: NC(N)=Nc1cccc2ccccc12
Reply text: -5.15

Inquiry: Please give the measured growth inhibition for this compound: COc1ccccc1/C=C1\CCC(CN(C)C)C1=O (centres undefined)
Reply text: 92.2

Inquiry: Please give the measured growth inhibition for this compound: COc1ccc(CC(N)C(=O)OC(C)C)cc1 (centres undefined)
Reply text: 1.4

Inquiry: Please give the measured growth inhibition for this compound: O=C(/C=C/c1ccc(O)cc1)OC[C@@H](O)COC1OC(CO)C(O)C(O)C1O (some centres undefined)
Reply text: -3.65

Inquiry: Please give the measured growth inhibition for this compound: CSc1ccc(C(=O)C[n+]2cc3ccccc3cc2C)cc1
Reply text: 0.7

Inquiry: Please give the measured growth inhibition for this compound: CC(=O)Nc1ccc(C(=O)NN2C(=O)C(Cl)/C2=C/c2ccco2)cc1 (centres undefined)
Reply text: -20.4
